molecular target: Human HDAC6 (Homo sapiens); construct: Full length with N-terminal GST tag, MW=159 kDa; GST (N); host or cells: Sf9 insect cells, baculovirus expression system; test: HDAC isoform inhibition, HDAC6; type: biochemical; details: ratio of HDAC1 IC50 to HDAC6 IC50
Sequence (Q9UBN7 whole entry, canonical isoform): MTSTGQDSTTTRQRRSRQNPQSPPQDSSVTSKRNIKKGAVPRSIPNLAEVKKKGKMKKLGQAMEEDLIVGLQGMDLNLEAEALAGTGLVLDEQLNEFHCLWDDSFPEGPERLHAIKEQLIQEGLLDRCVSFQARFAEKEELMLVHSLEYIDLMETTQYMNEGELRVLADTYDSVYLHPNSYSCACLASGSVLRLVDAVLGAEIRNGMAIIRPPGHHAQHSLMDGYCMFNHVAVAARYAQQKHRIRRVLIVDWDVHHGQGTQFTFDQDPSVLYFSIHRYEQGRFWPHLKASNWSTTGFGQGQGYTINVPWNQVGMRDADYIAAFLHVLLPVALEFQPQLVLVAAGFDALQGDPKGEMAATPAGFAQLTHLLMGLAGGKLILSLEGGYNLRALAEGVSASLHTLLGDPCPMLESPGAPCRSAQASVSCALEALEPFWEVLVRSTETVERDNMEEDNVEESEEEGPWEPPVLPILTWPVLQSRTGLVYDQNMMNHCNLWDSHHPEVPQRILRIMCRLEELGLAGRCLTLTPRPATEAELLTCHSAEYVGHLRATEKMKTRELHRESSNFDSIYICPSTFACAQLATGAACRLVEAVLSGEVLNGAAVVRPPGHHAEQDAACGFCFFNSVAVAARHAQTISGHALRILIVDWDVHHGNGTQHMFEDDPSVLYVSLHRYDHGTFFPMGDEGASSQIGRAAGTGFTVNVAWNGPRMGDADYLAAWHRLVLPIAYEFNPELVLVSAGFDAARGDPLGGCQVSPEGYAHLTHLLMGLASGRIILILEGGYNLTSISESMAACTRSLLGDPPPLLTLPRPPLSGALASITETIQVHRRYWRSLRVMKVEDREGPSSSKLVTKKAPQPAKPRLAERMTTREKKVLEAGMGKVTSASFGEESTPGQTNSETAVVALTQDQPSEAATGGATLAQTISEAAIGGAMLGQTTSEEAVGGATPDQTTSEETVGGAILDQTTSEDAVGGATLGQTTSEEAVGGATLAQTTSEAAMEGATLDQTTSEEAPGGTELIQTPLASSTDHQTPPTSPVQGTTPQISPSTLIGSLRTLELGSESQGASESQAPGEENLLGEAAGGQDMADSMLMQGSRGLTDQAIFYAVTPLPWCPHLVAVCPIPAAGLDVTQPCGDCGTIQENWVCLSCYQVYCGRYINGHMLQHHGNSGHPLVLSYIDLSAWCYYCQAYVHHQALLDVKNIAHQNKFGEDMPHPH
quantity kind: Selectivity HDAC1/HDAC6

O=C(NO)c1cc(CCCCn2ccc3cc(Cl)c(Cl)cc32)on1	16

a: CC1(C)CCN(CCCCc2cc(C(=O)NO)no2)c2ccc(Cl)cc21
b: O=C(NCCc1cc(C(=O)NO)no1)c1cccc(-c2ccccc2)c1
c: O=C(NCCc1cc(C(=O)NO)no1)c1ccc2ccccc2c1
d: O=C(NO)c1cc(CCCCN2CCCc3cc(Cl)ccc32)on1
Query: Arrange these compounds by their Selectivity HDAC1/HDAC6, starting with the largest number. Reply with the item labels sorted in the order that was asked for.
Response: c, b, a, d
(c: 294, b: 85, a: 40, d: 22)

The reported numbers originate from patent US12522572B2.
